B1: Ankyrin repeat and SAM domain-containing protein 6, residues 774 to 836; numbered along this chain, Q68DC2 (parent)
chain: DEDELTGILKKLSLEKYQPIFEEQEVDMEAFLTLTDGDLKELGIKTDGSRQQILAAISELNAG

# Variants of: B1
# method-notes: abundance fitness (aPCA) (normalised: wild type 0, dead -1); higher = more abundant; growth selection in yeast, the domain comes from the species named
# condition-details: Homo sapiens
assay-endpoint: abundance fitness

D36V : -0.571
G37T : -0.064
T6A : 0.146
E15K : -0.869
E23N : -0.165
L39S : -0.683
A62E : 0.035
K11R : -0.071
T33E : -0.032
L9C : -0.801
T46V : -0.138
N61W : -0.531
V26H : -0.74
F31E : -0.384
E4P : -0.619
